Please go through the items and note down their pIC50.
Target: CYP1A (Homo sapiens, UniProt P04798+P05177)
Assay: Inhibition of CYP1A (unknown origin)
Format: ADME, protein assay
pIC50: −log10 of the molar value.

**Query** Need pIC50, item `CC(C)Oc1ccc(-c2ncc(CNc3ccnc(C#N)c3)s2)cc1Cl`
**Result** < 4.60

**Query** Need pIC50, item `CC(C)Oc1ccc(-c2ncc(CNc3ccnc(C(F)(F)F)c3)s2)cc1Cl`
**Result** < 4.60

**Query** Need pIC50, item `FC(F)(F)c1cc(NCc2cn(-c3ccc(Oc4ccccc4)cc3)nn2)ccn1`
**Result** < 4.60

---

Target: Transcriptional regulator MvfR (Pseudomonas aeruginosa PA14)
Sequence (A0A072ZLE6 whole entry): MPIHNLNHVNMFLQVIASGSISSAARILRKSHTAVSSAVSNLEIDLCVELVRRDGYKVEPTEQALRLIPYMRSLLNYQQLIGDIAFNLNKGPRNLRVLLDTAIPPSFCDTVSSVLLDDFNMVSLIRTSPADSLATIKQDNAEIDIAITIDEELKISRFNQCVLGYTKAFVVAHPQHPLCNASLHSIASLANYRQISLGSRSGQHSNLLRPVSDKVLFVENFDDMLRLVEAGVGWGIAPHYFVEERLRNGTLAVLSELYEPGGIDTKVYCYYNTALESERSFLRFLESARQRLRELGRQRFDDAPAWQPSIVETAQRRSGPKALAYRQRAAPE
Test: Inverse agonist activity at Pseudomonas aeruginosa PqsR extracted from Escherichia coli Dh5alpha co-expressing lacZ incubated with test compound in presence of pseudomonas quinolone signal (PQS) by ONPG/heterologous reporter gene assay
Please go through the items and note down their IC50.
Reply with just the number (in nM).

**Query** Need IC50, item `FC(F)(F)c1cc(NCc2ncc(-c3ccc(Oc4ccccc4)cc3)s2)ccn1`
**Result** 51

**Query** Need IC50, item `CC(C)Oc1ccc(-c2ncc(CNc3ccnc(C(F)(F)F)c3)s2)cc1Cl`
**Result** 8

**Query** Need IC50, item `COc1ccc(-c2ncc(CNc3ccnc(C(F)(F)F)c3)s2)cc1Cl`
**Result** 40

**Query** Need IC50, item `Clc1cc(NCc2cnc(-c3ccc(Oc4ccccc4)cc3)s2)ccn1`
**Result** 9

**Query** Need IC50, item `FC(F)(F)c1cc(NCc2cnc(-c3ccc(Cl)s3)s2)ccn1`
**Result** 86

**Query** Need IC50, item `CC(C)Oc1ccc(-c2ncc(CNc3ccnc(Cl)c3)s2)cc1`
**Result** 45

**Query** Need IC50, item `CC(C)Nc1ccc(-c2ncc(CNc3ccnc(C(F)(F)F)c3)s2)cc1`
**Result** 430

**Query** Need IC50, item `FC(F)(F)c1cc(NCc2nnc(-c3ccc(Oc4ccccc4)cc3)o2)ccn1`
**Result** 23

**Query** Need IC50, item `CC(C)Oc1ccc(-c2ncc(CNc3cc(Cl)nc(Cl)c3)s2)cc1`
**Result** 29

**Query** Need IC50, item `CC(C)Oc1ccc(-c2ncc(CNc3ccnc(C(F)(F)F)c3)s2)cc1`
**Result** 18

**Query** Need IC50, item `FC(F)(F)c1cc(NCc2cnc(-c3ccc(Cl)nc3)s2)ccn1`
**Result** 221

**Query** Need IC50, item `FC(F)(F)c1ccc(NCc2cnc(-c3ccc(Oc4ccccc4)cc3)s2)cn1`
**Result** 38

**Query** Need IC50, item `N#Cc1ccc(NCc2cnc(-c3ccc(Oc4ccccc4)cc3)s2)nc1`
**Result** 803

**Query** Need IC50, item `FC(F)(F)c1cc(NCc2cnc(-c3ccc(Oc4ccccc4)cc3)s2)ccn1`
**Result** 17

**Query** Need IC50, item `N#Cc1ccc(NCc2cnc(-c3ccc(Oc4ccccc4)cc3)s2)cn1`
**Result** 5

**Query** Need IC50, item `FC(F)(F)c1cc(NCc2nc(-c3ccc(Oc4ccccc4)cc3)cs2)ccn1`
**Result** 712

**Query** Need IC50, item `CN(C)c1ccc(-c2ncc(CNc3ccnc(C(F)(F)F)c3)s2)cc1`
**Result** 728

**Query** Need IC50, item `FC(F)(F)c1cc(NCc2nnc(-c3ccc(Oc4ccccc4)cc3)[nH]2)ccn1`
**Result** 93

**Query** Need IC50, item `COc1ccc(-c2ncc(CNc3ccnc(C(F)(F)F)c3)s2)cc1`
**Result** 83

**Query** Need IC50, item `FC(F)(F)c1cc(NCc2csc(-c3ccc(Oc4ccccc4)cc3)n2)ccn1`
**Result** 53

**Query** Need IC50, item `CC(C)Oc1ccc(-c2ncc(CNc3cc(Cl)nc(C(F)(F)F)c3)s2)cc1Cl`
**Result** 10

**Query** Need IC50, item `FC(F)(F)c1cc(SCc2cnc(-c3ccc(Oc4ccccc4)cc3)s2)ccn1`
**Result** 111

**Query** Need IC50, item `CC(C)Oc1ccc(-c2ncc(CNc3cc(C#N)nc(C(F)(F)F)c3)s2)cc1Cl`
**Result** 19

**Query** Need IC50, item `CC(C)Oc1ccc(-c2ncc(CNc3ccnc(C#N)c3)s2)cc1Cl`
**Result** 5

**Query** Need IC50, item `CC(C)Oc1ccc(-c2ncc(CNc3cc(C#N)nc(C(F)(F)F)c3)s2)cc1`
**Result** 84

**Query** Need IC50, item `FC(F)(F)c1cc(NCc2cc(-c3ccc(Oc4ccccc4)cc3)no2)ccn1`
**Result** 30

**Query** Need IC50, item `FC(F)(F)c1cc(NCc2cc(-c3ccc(Oc4ccccc4)cc3)n[nH]2)ccn1`
**Result** 117

**Query** Need IC50, item `FC(F)(F)c1cc(NCc2cnc(-c3ccc(C4CC4)cc3)s2)ccn1`
**Result** 28

**Query** Need IC50, item `N#Cc1cc(NCc2cnc(-c3ccc(Oc4ccccc4)cc3)s2)ccn1`
**Result** 30

**Query** Need IC50, item `FC(F)(F)c1cc(NCc2cnc(-c3ccc(Cl)cc3)s2)ccn1`
**Result** 67

**Query** Need IC50, item `COc1ccc(-c2ncc(CNc3ccnc(C(F)(F)F)c3)s2)cc1C`
**Result** 58

**Query** Need IC50, item `CC(C)Oc1ccc(-c2ncc(CNc3cc(Cl)nc(C(F)(F)F)c3)s2)cc1`
**Result** 8

The reported numbers originate from ChEMBL document CHEMBL5608201.
